Task for the reader: assign each of the following compounds its reported IC50.
# Tested on: MDA-MB-231
# testSummary: Cytotoxicity in human MDA-MB-231 cells assessed as reduction in cell viability incubated for 96 hrs by SRB assay
# Assay type: functional, cell-based
# appliedConditions: MDA-MB-231, 96 h
Answer in µM, number only, no unit symbol.

Observed IC50, MDA-MB-231, "COC(=O)[C@@]1(C)CC[C@]2(C)CC[C@]3(C)C(=CC(=O)[C@@H]4[C@@]5(C)Cc6cn(C(=O)C7CCNCC7)nc6C(C)(C)[C@@H]5CC[C@]43C)[C@H]2C1" : 19.2

So the reported IC50 for "CC1(C)[C@@H](O)CC[C@]2(C)[C@H]3C(=O)C=C4[C@H]5C[C@@](C)(C(=O)O)CC[C@]5(C)CC[C@@]4(C)[C@]3(C)CC[C@@H]12" , on MDA-MB-231, turned out to be 101

MDA-MB-231 data for "CC1(C)c2n[nH]cc2C[C@]2(C)[C@H]3C(=O)C=C4[C@H]5C[C@@](C)(C(=O)OCc6ccccc6)CC[C@]5(C)CC[C@@]4(C)[C@]3(C)CC[C@@H]12" ; its IC50: 18.1

Measured IC50 for this entry COC(=O)[C@@]1(C)CC[C@]2(C)CC[C@]3(C)C(=CC(=O)[C@@H]4[C@@]5(C)Cc6cn(C(=O)C7CCCNC7)nc6C(C)(C)[C@@H]5CC[C@]43C)[C@H]2C1 (some centres undefined) on MDA-MB-231: 24
